Please go through the items and note down their GI50.
System: UACC-257 melanoma
assay: NCI tumour cell line growth inhibition, 48 h

// lookup GI50 for `C=C(C)[C@@H]1CCC=C2CC[C@]3(C)[C@H](CC[C@@H]4[C@@]5(C)CCCNC(C)(C)[C@@H]5CC[C@]43C)[C@H]21`
3.34 µM

// lookup GI50 for `C=CC(=O)N1CCC(c2ccc(C(N)=O)c(-c3ccc(Oc4ccccc4)cc3)n2)CC1`
27.9 µM

// lookup GI50 for `COc1cc2c(cc1OC)-c1ncc3c(OC)ccc(OC)c3c1C2`
19.7 µM

// lookup GI50 for `N#Cc1nc(-c2ccc(F)cc2)oc1S(=O)(=O)N1CCCCC1`
1.98 µM

// lookup GI50 for `COc1ccc(C(=O)Cn2c(C(=O)c3ccccc3)nc3ccccc32)cc1`
> 100 µM

// lookup GI50 for `Cc1cn2c(/C=C3/C(=O)Nc4c3ccc3ccccc43)c(C(F)(F)F)nc2s1`
> 100 µM

====

Please go through the items and note down their TGI.
System: SF-295 CNS
assay: NCI tumour cell line growth inhibition, 48 h
*1 amine or outer side, *2 acyl side, *3 side chain or, on linkers, in order; H or OH if unused. Where a SMILES comes first, the peptide text is derived from it. Bridges are numbered along the chain shown (N, C = ends). Roman numbers before positions name the chains, in order. [ ]: non-standard residue; d: D form. Actinocin(9to1) = Cc1c2oc3c(C)ccc(C(=O)[*:1])c3nc-2c(C(=O)[*:2])c(N)c1=O; NMeH = CN[CH](Cc1c[nH]cn1)C(=O)O; Sar = CNCC(=O)O

Test system SF-295 CNS; read-out TGI; what value for `Cc1cc2c(c(C(N)=O)c1C)-c1cccc(F)c1C2=O` ?
> 100 µM

Test system SF-295 CNS; read-out TGI; what value for `CN(C)Cc1ccc(-c2cc3onc(-c4ccccc4)c3c(=O)n2C)cc1` ?
46.5 µM

Test system SF-295 CNS; read-out TGI; what value for `COc1cc2c(cc1OC)-c1ncc3c(OC)ccc(OC)c3c1C2` ?
42.7 µM

Test system SF-295 CNS; read-out TGI; what value for `CCCn1c2c(c3c(O)cccc31)C(=O)c1ccccc1-2` ?
67.8 µM

Test system SF-295 CNS; read-out TGI; what value for `Cc1cn2c(/C=C3/C(=O)Nc4c3ccc3ccccc43)c(C(F)(F)F)nc2s1` ?
> 100 µM

Test system SF-295 CNS; read-out TGI; what value for `CCn1c(=O)c2nc(SC)sc2n(-c2ccc(C)cc2)c1=O` ?
> 100 µM

Test system SF-295 CNS; read-out TGI; what value for `CCO/C=C1\N=C(c2ccc(Cl)c(Cl)c2)OC1=O` ?
> 100 µM

Test system SF-295 CNS; read-out TGI; what value for `Cc1cc(S(=O)(=O)Nc2nc3ncccc3[nH]2)c(S)cc1Cl` ?
> 100 µM

Test system SF-295 CNS; read-out TGI; what value for OC1(c2ccccc2)C2CC=CC2C1(c1ccccc1)c1ccccc1 (configuration not stated) ?
> 100 µM

Test system SF-295 CNS; read-out TGI; what value for Cc1c2oc3c(C)ccc(C(=O)NC4C(=O)NC(C(C)C)C(=O)N5CCCC5C(=O)N(C)CC(=O)N(C)C(Cc5cnc[nH]5)C(=O)OC4C)c3nc-2c(C(=O)NC2C(=O)NC(C(C)C)C(=O)N3CCCC3C(=O)N(C)CC(=O)N(C)C(Cc3cnc[nH]3)C(=O)OC2C)c(N)c1=O (configuration not stated) (I: TVP[Sar][NMeH] / II: TVP[Sar][NMeH]; ester I:1-I:C, II:1-II:C; linker I:N-II:N via Actinocin(9to1); configuration not given here) ?
> 100 µM

Test system SF-295 CNS; read-out TGI; what value for `O=C(Nc1sccc1S(=O)(=O)c1ccc(Cl)cc1)c1ccc(F)cc1F` ?
65.3 µM

Test system SF-295 CNS; read-out TGI; what value for `COc1cc(/C=C/c2ccc(C)cc2)cc(OC)c1OC` ?
6.53 µM

Test system SF-295 CNS; read-out TGI; what value for `O=C(CCN1CCCC1)Nc1ccc2c(NCc3ccccc3)c3ccccc3nc2c1` ?
1.91 µM

Test system SF-295 CNS; read-out TGI; what value for COC(C)(C)[C@@H](O)[C@H](O)C[C@H](C)C1=C2CC[C@@H]3[C@@]4(C)CC[C@@H](OC(C)=O)C(C)(C)[C@@H]4C[C@@H](OC4OC(COC(C)=O)C(O)C(O)C4O)[C@@]3(C)[C@]2(C)CC1 (some centres not stated) ?
24.1 µM

Test system SF-295 CNS; read-out TGI; what value for `C=CC(=O)N1CCC(c2ccc(C(N)=O)c(-c3ccc(Oc4ccccc4)cc3)n2)CC1` ?
> 100 µM

Test system SF-295 CNS; read-out TGI; what value for `CCN1C/C(=C\c2ccc(Cl)cc2)c2nc(N)c(C#N)c(-c3ccc(Cl)cc3)c2C1` ?
> 100 µM

Test system SF-295 CNS; read-out TGI; what value for Cc1ccc(S(=O)(=O)NC(CCC(=O)NNc2ccccc2)C(=O)NNc2ccccc2)cc1 (configuration not stated) ?
> 100 µM

====

Test system: PC-3 prostate
assay: NCI tumour cell line growth inhibition, 48 h
Please go through the items and note down their TGI.

// lookup TGI for CC(C)(C)C1CCC2c3c([nH]c4ccccc34)C3C(=O)N(c4ccc(C#N)cc4)C(=O)C3C2C1 (stereo not given)
17.6 µM

// lookup TGI for `CN1C(=O)c2ccc3ccccc3c2C1=O`
> 100 µM

// lookup TGI for `N#Cc1c(-c2ccc(Cl)cc2)cc(-c2ccc(Nc3ccnc4cc(Cl)ccc34)cc2)[nH]c1=O`
> 100 µM

// lookup TGI for `O=c1c2c([nH]c3nccn13)CCC2`
> 10 µM

// lookup TGI for `COc1cc(/C=C/c2ccc(C)cc2)cc(OC)c1OC`
11.4 µM

// lookup TGI for `[2H]C([2H])([2H])NC(=O)c1nnc(NC(=O)C2CC2)cc1Nc1cccc(-c2ncn(C)n2)c1OC`
> 100 µM

// lookup TGI for `O=C1COc2cc(N3CCN(c4cccc(C(F)(F)F)c4)CC3)ccc2N1`
> 100 µM

// lookup TGI for `COc1ccc(C(=O)Cn2c(C(=O)c3ccccc3)nc3ccccc32)cc1`
> 100 µM

// lookup TGI for `CN1CCN(Cc2c[nH]c3c2C(=O)c2c(c(O)c4ccccc4c2O)C3=O)CC1`
21.6 µM

// lookup TGI for `COc1ccc([C@H](CC(=O)O)N2CCN(CCCc3ccc4c(n3)NCCC4)C2=O)cn1`
> 100 µM

====

Test system: LOX IMVI melanoma
assay: NCI tumour cell line growth inhibition, 48 h
Please go through the items and note down their TGI.
Write the answer as a number in µM, unit excluded.

Test system LOX IMVI melanoma; read-out TGI; what value for `O=C(O)C[C@H](O)C[C@H](O)/C=C/c1c(C2CC2)nc2ccccc2c1-c1ccc(F)cc1` ?
13.9

Test system LOX IMVI melanoma; read-out TGI; what value for `CC(=O)O[C@H]1CC[C@@]2(C)C(=CC[C@@H]3[C@@H]2CC[C@]2(C)C(=N/O)/C(=C\c4ccccc4)C[C@@H]32)C1` ?
26

Test system LOX IMVI melanoma; read-out TGI; what value for ClC(Cl)=C(Cl)C1(Cl)CC1COCc1ccccc1 (configuration not stated) ?
54.8

Test system LOX IMVI melanoma; read-out TGI; what value for COC(C)(C)[C@@H](O)[C@H](O)C[C@H](C)C1=C2CC[C@@H]3[C@@]4(C)CC[C@@H](OC(C)=O)C(C)(C)[C@@H]4C[C@@H](OC4OC(COC(C)=O)C(O)C(O)C4O)[C@@]3(C)[C@]2(C)CC1 (some centres not stated) ?
19.6

Test system LOX IMVI melanoma; read-out TGI; what value for `C=C1C(=O)O[C@H]2[C@H]1CC/C(COC(=O)CCCCCC(=O)OC/C1=C/CC[C@@]3(C)O[C@H]3[C@H]3OC(=O)C(=C)[C@@H]3CC1)=C\CC[C@@]1(C)O[C@@H]21` ?
2.88

====

Tested on: HOP-92 NSCLC
assay: NCI tumour cell line growth inhibition, 48 h
Please go through the items and note down their GI50.

Test system HOP-92 NSCLC; read-out GI50; what value for `CCCCNNC(=O)c1ccc(Br)cc1` ?
1.46 µM

Test system HOP-92 NSCLC; read-out GI50; what value for `CCCCCCCCCCCC1=NC(C)(C)CN1C(C)(C)CO` ?
2.31 µM

Test system HOP-92 NSCLC; read-out GI50; what value for `OCCCCC#Cc1ccccc1C#Cc1ccc(O)cc1` ?
17.4 µM

Test system HOP-92 NSCLC; read-out GI50; what value for `Cc1ccc(/C=C/c2c(C(=O)/C=C/c3ccccc3)c(C)nc3ccccc23)cc1` ?
1.52 µM

Test system HOP-92 NSCLC; read-out GI50; what value for `COc1ccc(C(=O)Cn2c(C(=O)c3ccccc3)nc3ccccc32)cc1` ?
> 100 µM

Test system HOP-92 NSCLC; read-out GI50; what value for `CO/N=C(\COc1ccc2c(=O)c3ccccc3oc2c1)c1ccccc1` ?
25.7 µM

Test system HOP-92 NSCLC; read-out GI50; what value for `C=CC(=O)N1CCC(c2ccc(C(N)=O)c(-c3ccc(Oc4ccccc4)cc3)n2)CC1` ?
10.4 µM

Test system HOP-92 NSCLC; read-out GI50; what value for COC(C)(C)[C@@H](O)[C@H](O)C[C@H](C)C1=C2CC[C@@H]3[C@@]4(C)CC[C@@H](OC(C)=O)C(C)(C)[C@@H]4C[C@@H](OC4OC(COC(C)=O)C(O)C(O)C4O)[C@@]3(C)[C@]2(C)CC1 (some centres undefined) ?
13 µM

Test system HOP-92 NSCLC; read-out GI50; what value for `Fc1ccc(-c2ncn(C3CCNCC3)c2-c2ccnc(Oc3ccc4c(c3)OCO4)n2)cc1` ?
5.21 µM
